Square brackets hold non-standard residues; d marks the D form. Peptide text beside a SMILES is read from it. * marks the point of attachment. Sta = CC(C)C[C@H](N)[C@@H](O)CC(=O)O; X2 = c1ccc(CC(N*)c2ccccc2)cc1; NH(CH2)3Ph = c1ccc(CCCN*)cc1; NHPhenethyl = c1ccc(CCN*)cc1; Isobutyryl = CC(C)C(=O)*; Boc = CC(C)(C)OC(=O)*; NHBn = c1ccc(CN*)cc1
Would you mind telling me the reported IC50 of each entry?
// note: answer is a bare numeric in µM

INPUT: Enter reported IC50 observed with hog kidney renin (Sus scrofa) for CC(C)C[C@H](NC(=O)C[C@H](O)[C@H](CC(C)C)NC(=O)[C@H](Cc1c[nH]cn1)NC(=O)[C@H](Cc1ccccc1)NC(=O)[C@@H]1CCCN1C(=O)[C@H](Cc1c[nH]cn1)NC(=O)C(C)C)C(=O)NCCc1ccccc1 (Isobutyryl-HPFH[Sta]L-NHPhenethyl)
Sequence (A0A287APG1 67-407): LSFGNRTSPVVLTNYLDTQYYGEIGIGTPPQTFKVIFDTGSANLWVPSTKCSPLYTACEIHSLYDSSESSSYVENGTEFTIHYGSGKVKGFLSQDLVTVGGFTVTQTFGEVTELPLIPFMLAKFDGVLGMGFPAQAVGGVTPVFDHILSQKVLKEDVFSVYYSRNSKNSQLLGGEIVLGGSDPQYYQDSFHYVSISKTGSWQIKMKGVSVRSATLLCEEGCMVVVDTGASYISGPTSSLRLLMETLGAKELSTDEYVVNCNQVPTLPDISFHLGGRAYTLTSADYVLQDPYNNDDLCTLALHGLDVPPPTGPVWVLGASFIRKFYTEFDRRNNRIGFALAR
OUTPUT: 0.03

INPUT: Enter reported IC50 observed with hog kidney renin (Sus scrofa) for CC(C)C[C@H](NC(=O)C[C@H](O)[C@H](CC(C)C)NC(=O)[C@H](Cc1c[nH]cn1)NC(=O)[C@H](Cc1ccccc1)NC(=O)OC(C)(C)C)C(=O)N[C@@H](CC(C)C)[C@@H](O)CC(=O)O [BOC--Phe--His--Sta--Leu--Sta, BOC--Phe-His-Sta-Leu-Sta] (Boc-FH[Sta]L[Sta]-OH)
OUTPUT: 0.036

INPUT: Enter reported IC50 observed with hog kidney renin (Sus scrofa) for CC(C)C[C@H](NC(=O)C[C@H](O)[C@H](CC(C)C)NC(=O)[C@H](Cc1c[nH]cn1)NC(=O)[C@H](Cc1ccccc1)NC(=O)[C@@H]1CCCN1C(=O)[C@H](Cc1c[nH]cn1)NC(=O)C(C)C)C(=O)NC(Cc1ccccc1)c1ccccc1 (stereo partly drawn) (Isobutyryl-HPFH[Sta]L-X2)
OUTPUT: 0.0056

INPUT: Enter reported IC50 observed with hog kidney renin (Sus scrofa) for CC(C)C[C@H](NC(=O)C[C@H](O)[C@H](CC(C)C)NC(=O)[C@H](Cc1c[nH]cn1)NC(=O)[C@H](Cc1ccccc1)NC(=O)[C@@H]1CCCN1C(=O)[C@H](Cc1c[nH]cn1)NC(=O)C(C)C)C(=O)NCCCc1ccccc1 (Isobutyryl-HPFH[Sta]L-{NH(CH2)3Ph})
OUTPUT: 0.019

INPUT: Enter reported IC50 observed with hog kidney renin (Sus scrofa) for CC(C)C[C@H](NC(=O)C[C@H](O)[C@H](CC(C)C)NC(=O)[C@H](Cc1c[nH]cn1)NC(=O)[C@H](Cc1ccccc1)NC(=O)[C@@H]1CCCN1C(=O)[C@H](Cc1c[nH]cn1)NC(=O)C(C)C)C(=O)NCc1ccccc1 (Isobutyryl-HPFH[Sta]L-NHBn)
OUTPUT: 0.013

INPUT: Enter reported IC50 observed with hog kidney renin (Sus scrofa) for CC(C)C[C@H](NC(=O)C[C@H](O)[C@H](Cc1ccccc1)NC(=O)[C@H](Cc1c[nH]cn1)NC(=O)[C@H](Cc1ccccc1)NC(=O)OC(C)(C)C)C(=O)NCc1ccccc1 [BOC--Phe--His--AHPPA--Leu--benzylamide, BOC--Phe-His-AHPPA^4 -Lleu-benzylamide]
OUTPUT: 0.0014

INPUT: Enter reported IC50 observed with hog kidney renin (Sus scrofa) for CC(C)C[C@H](NC(=O)C[C@H](O)[C@H](CC(C)C)NC(=O)[C@H](Cc1c[nH]cn1)NC(=O)[C@H](Cc1ccccc1)NC(=O)OC(C)(C)C)C(=O)NCc1ccccc1 [BOC--Phe--His--Sta--Leu--benzylamide, BOC--Phe-His-Sta-Leu-benzylamide] (Boc-FH[Sta]L-NHBn)
OUTPUT: 0.011

INPUT: Enter reported IC50 observed with hog kidney renin (Sus scrofa) for CC(C)C[C@H](NC(=O)C[C@H](O)[C@H](CC(C)C)NC(=O)[C@H](Cc1c[nH]cn1)NC(=O)[C@H](Cc1ccccc1)NC(=O)OC(C)(C)C)C(=O)NC(C)c1cccc2ccccc12 (single isomer, unassigned)
OUTPUT: 0.011

INPUT: Enter reported IC50 observed with hog kidney renin (Sus scrofa) for CC(=O)N[C@@H](Cc1ccccc1)C(=O)N[C@@H](Cc1c[nH]cn1)C(=O)N[C@@H](Cc1ccccc1)[C@@H](O)CC(=O)N[C@@H](CC(C)C)C(=O)NCc1ccccc1 [Acetyl--Phe-His-AHPPA-Leu-benzylamide]
OUTPUT: 0.0034

These entries and their values trace back to patent US4479941A.
